TEST_TARGET: E. coli DXP synthase (Escherichia coli)
Construct: made in house
ASSAY_OVERVIEW: biochemical
PARTICULARS: pyruvate 95 μM, D-GAP 56 μM; error 95% Confidence Interval; read-out: IC50 (DXP synthase)
QUANTITY_NAME: IC50 (µM)
Give the value, in units of µM, as a plain number.

Answer with reported IC50 of CCCCOP(=O)(O)C(C)=O [BAP, butylacetylphosphonate, reference compound] 24

---

TEST_TARGET: E. coli DXP synthase (Escherichia coli)
Construct: made in house
ASSAY_OVERVIEW: biochemical
PARTICULARS: Table 4; read-out: In vitro DXP syn IC50
// pIC50 lookup, one value per entry
As a rule, pIC50 stands for the negative log10 of the concentration, concentration in M.

Previously resolved entries follow.
[[record]]
molecule = "CC(=O)P(=O)([O-])OCCc1cccc2ccccc12.[Li+] [Compound 5]"
recorded_value = 4.11

[[record]]
molecule = "COc1ccc(CCOP(=O)([O-])C(C)=O)cc1.[Li+] [Compound 4]"
recorded_value = 3.71

[[record]]
molecule = "CC(=O)P(=O)(O)OC1Cc2ccccc2C1 [Compound 2]"
recorded_value = 4.19


Answer with reported pIC50 of COc1cccc(COP(=O)([O-])C(C)=O)c1.[Li+] [Compound 3] 4.43

---

TEST_TARGET: E. coli DXP synthase (Escherichia coli)
Construct: made in house
ASSAY_OVERVIEW: biochemical
PARTICULARS: Ki (DXP synthase, with respect to D-GAP), uncompetitive with respect to D-GAP; 200 μM pyruvate
QUANTITY_NAME: Ki (µM)
Give the value, in units of µM, as a plain number.

Give E. coli DXP synthase (Escherichia coli) Ki for the following compound: CC(=O)P(=O)(O)OCc1ccccc1 [Compound 1, benzyl acetylphosphonate] 70

---

TEST_TARGET: E. coli DXP synthase (Escherichia coli, UniProt P77488)
Construct: made in house
ASSAY_OVERVIEW: biochemical
QUANTITY_NAME: IC50 (µM)
Give the value, in units of µM, as a plain number.

Answer with reported IC50 of C=CCOP(=O)(O)C(C)=O 20

---

TEST_TARGET: E. coli DXP synthase (Escherichia coli)
Construct: made in house
ASSAY_OVERVIEW: biochemical
PARTICULARS: Ki (DXP synthase), competitive with respect to pyruvate
// Ki lookup, one value per entry
Give the value, in units of µM, as a plain number.

[[record]]
compound = "CCCCCOP(=O)(O)C(C)=O [PentAP, Pentylacetylphosphonate]"
units_symbol = "µM"
recorded_value = 9.9

[[record]]
compound = "CC(=O)P(=O)(O)OCc1ccccc1 [Compound 1, benzyl acetylphosphonate]"
units_symbol = "µM"
recorded_value = 10.4


Lab note: next compound to report on.
Answer with reported Ki of CCCCCCOP(=O)(O)C(C)=O [HexAP, Hexylacetylphosphonate] 8.9

---

TEST_TARGET: Porcine pyruvate dehydrogenase (PDH E1 subunit) (Sus scrofa, UniProt P29804)
Construct: Ki^PDH; μM); Ki^PDH
Sequence (P29804 1-390): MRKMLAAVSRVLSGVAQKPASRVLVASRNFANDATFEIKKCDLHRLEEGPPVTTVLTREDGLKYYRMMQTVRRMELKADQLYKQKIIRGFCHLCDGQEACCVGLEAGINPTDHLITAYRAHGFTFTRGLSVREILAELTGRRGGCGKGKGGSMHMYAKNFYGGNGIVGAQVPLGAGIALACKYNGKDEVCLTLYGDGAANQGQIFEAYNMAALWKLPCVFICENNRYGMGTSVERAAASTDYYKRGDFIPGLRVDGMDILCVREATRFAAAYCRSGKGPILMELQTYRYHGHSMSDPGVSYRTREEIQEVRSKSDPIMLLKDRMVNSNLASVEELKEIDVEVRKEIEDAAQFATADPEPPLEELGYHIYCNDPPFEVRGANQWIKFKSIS
ASSAY_OVERVIEW: Inhibition of PDH by acetylphosphonates
Type: biochemical
PARTICULARS: Ki^PDH, Table 5 (no unit in table; μM)
// Ki lookup, one value per entry
Give the value, in units of µM, as a plain number.

Previously resolved entries follow.
[[record]]
molecule = "CC(=O)P(=O)(O)OCc1ccccc1 [Compound 1, benzyl acetylphosphonate]"
quantity_name = "Ki"
recorded_value = 880

[[record]]
molecule = "CCCCCCOP(=O)(O)C(C)=O [HexAP, Hexylacetylphosphonate]"
quantity_name = "Ki"
recorded_value = 117


Lab note: next molecule to report on.
Answer with reported Ki of CCCCCOP(=O)(O)C(C)=O [PentAP, Pentylacetylphosphonate] 250

---

TEST_TARGET: E. coli DXP synthase (Escherichia coli, UniProt P77488)
Construct: made in house
ASSAY_OVERVIEW: biochemical
PARTICULARS: Table 4; read-out: In vitro DXP syn Ki
QUANTITY_NAME: Ki
State the value with its unit after it.

Answer with reported Ki of CC(=O)P(=O)([O-])OCCc1cccc2ccccc12.[Li+] [Compound 5] 55 µM

---

TEST_TARGET: E. coli DXP synthase (Escherichia coli)
Construct: made in house
ASSAY_OVERVIEW: biochemical
PARTICULARS: competitive with respect to pyruvate; read-out: Ki (DXP synthase)
QUANTITY_NAME: Ki (µM)
Give the value, in units of µM, as a plain number.

Answer with reported Ki of CCCCCCCCOP(=O)(O)C(C)=O [OctAP, Octylacetylphosphonate] 6

---

TEST_TARGET: E. coli DXP synthase (DXPS) (Escherichia coli, UniProt P77488)
Construct: made in house
Sequence (P77488 1-620): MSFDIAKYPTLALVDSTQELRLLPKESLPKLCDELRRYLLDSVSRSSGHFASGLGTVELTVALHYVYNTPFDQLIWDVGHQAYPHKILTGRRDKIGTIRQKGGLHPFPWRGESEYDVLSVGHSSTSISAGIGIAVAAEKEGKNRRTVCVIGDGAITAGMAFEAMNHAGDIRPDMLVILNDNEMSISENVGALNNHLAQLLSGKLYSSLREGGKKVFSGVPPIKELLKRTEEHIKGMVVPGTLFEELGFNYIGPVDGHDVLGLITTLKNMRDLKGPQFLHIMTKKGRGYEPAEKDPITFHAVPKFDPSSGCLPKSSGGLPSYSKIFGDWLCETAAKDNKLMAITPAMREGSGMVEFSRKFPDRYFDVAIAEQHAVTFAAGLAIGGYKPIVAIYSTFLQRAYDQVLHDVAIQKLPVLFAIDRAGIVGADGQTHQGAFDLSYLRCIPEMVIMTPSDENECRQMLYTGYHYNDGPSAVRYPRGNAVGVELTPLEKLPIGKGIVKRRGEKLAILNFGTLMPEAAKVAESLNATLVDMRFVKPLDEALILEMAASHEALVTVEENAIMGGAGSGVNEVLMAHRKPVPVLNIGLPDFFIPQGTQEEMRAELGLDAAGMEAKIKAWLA
Assay type: biochemical
PARTICULARS: acceptor substrate; 10-20 mM pyruvate, pH 8.0, 10% DMSO, 37° C.; average ± SEM
// Km lookup, one value per entry
State the value with its unit after it.

Previously resolved entries follow.
[[record]]
molecule = "COc1cccc(COP(=O)([O-])C(C)=O)c1.[Li+] [Compound 3]"
test_target = "E. coli DXP synthase (DXPS) (Escherichia coli, UniProt P77488)"
quantity_name = "Km"
recorded_value = "99 µM"

[[record]]
molecule = "CC(=O)P(=O)([O-])OCCc1cccc2ccccc12.[Li+] [Compound 5]"
test_target = "E. coli DXP synthase (DXPS) (Escherichia coli, UniProt P77488)"
quantity_name = "Km"
recorded_value = "41 µM"

[[record]]
molecule = "Cc1nn(C(C)C)c(C)c1N=O [Compound 9]"
test_target = "E. coli DXP synthase (DXPS) (Escherichia coli, UniProt P77488)"
quantity_name = "Km"
recorded_value = "387 µM"

[[record]]
molecule = "COc1ccc(CCOP(=O)([O-])C(C)=O)cc1.[Li+] [Compound 4]"
test_target = "E. coli DXP synthase (DXPS) (Escherichia coli, UniProt P77488)"
quantity_name = "Km"
recorded_value = "54 µM"

[[record]]
molecule = "NS(=O)(=O)c1ccc2c(N=O)c(O)ccc2c1 [Compound 7]"
test_target = "E. coli DXP synthase (DXPS) (Escherichia coli, UniProt P77488)"
quantity_name = "Km"
recorded_value = "18 µM"


Answer with reported Km of O=Nc1c(O)ccc2cc(Br)ccc12 [Compound 6] 24 µM

Answer with reported Km of COc1ccc2ccc(O)c(N=O)c2c1 [Compound 8] 63 µM

---

// pIC50 lookup, one value per entry
TEST_TARGET: UniProt P77488
Sequence (P77488 1-620): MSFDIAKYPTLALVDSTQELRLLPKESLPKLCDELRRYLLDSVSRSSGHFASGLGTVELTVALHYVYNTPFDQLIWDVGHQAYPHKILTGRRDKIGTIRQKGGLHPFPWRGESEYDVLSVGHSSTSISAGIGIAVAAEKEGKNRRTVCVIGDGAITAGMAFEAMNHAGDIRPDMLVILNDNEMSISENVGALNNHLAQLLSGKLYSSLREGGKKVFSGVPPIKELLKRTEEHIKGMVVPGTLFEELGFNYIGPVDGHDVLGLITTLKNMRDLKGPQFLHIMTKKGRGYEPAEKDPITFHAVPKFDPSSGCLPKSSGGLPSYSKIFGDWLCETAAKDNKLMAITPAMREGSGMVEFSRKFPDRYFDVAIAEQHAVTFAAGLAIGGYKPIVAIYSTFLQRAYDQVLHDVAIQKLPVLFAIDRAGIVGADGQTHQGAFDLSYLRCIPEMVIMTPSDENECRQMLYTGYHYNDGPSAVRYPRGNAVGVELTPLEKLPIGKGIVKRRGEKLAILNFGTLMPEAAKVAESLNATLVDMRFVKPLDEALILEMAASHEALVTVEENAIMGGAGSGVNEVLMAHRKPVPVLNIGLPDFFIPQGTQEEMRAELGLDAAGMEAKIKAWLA
pIC50: −log10 of the molar value.

Previously resolved entries follow.
[[record]]
molecule_smiles = "COc1ccc(CCOP(=O)([O-])C(C)=O)cc1.[Li+]"
recorded_value = 3.07

[[record]]
molecule_smiles = "Cc1nn(C(C)C)c(C)c1N=O"
recorded_value = "< 2.70"


Lab note: next compound to report on.
Answer with reported pIC50 of COc1ccc2ccc(O)c(N=O)c2c1 < 2.70
